# systemTested: T1, 4H918-bA
# T1 chain: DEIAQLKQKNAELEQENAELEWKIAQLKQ
# protocolNotes: two-hybrid library CCNG1;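 note: natural log of median RNA to DNA barcode read ratio; higher means stronger binding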
measure: interaction score
The answer should be a number; do not append a unit.

Worked cases, answers included:
* DEIAQLEQKIAELKQEIAELKWENAQLEQ [4H331-bA] | -0.884
* DEIAQLEQKIAELKQKNAELEWEIAQLKQ [4H370-bA] | -0.552

Entry DKNAQLKQKIAELEQEIAELKWKNAQLEQ [4H3855-bA] , interaction score reported as -1.43

Summary for this binder, DKNAQLKQEIAELEQENAELEWKIAQLKQ [4H3606-bA] : interaction score is -0.427

Documented interaction score of DKNAQLKQKIAELEQEIAELEWENAQLEQ [4H3843-bA] : -1.1

Field interaction score (entry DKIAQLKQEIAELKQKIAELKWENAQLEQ [4H2667-bA] ) reads -1.68

What the record says about DENAQLEQKIAELKQENAELKWEIAQLEQ [4H1369-bA] : interaction score is -1.28

interaction score recorded for this binder, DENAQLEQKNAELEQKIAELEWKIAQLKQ [4H1446-bA] , is -0.0235
